# system: hTLR8 (Homo sapiens, UniProt Q9NR97)
# Construct: host or cells: HEK293 cells stably transfected with hTLR8
# Sequence (Q9NR97 27-1041): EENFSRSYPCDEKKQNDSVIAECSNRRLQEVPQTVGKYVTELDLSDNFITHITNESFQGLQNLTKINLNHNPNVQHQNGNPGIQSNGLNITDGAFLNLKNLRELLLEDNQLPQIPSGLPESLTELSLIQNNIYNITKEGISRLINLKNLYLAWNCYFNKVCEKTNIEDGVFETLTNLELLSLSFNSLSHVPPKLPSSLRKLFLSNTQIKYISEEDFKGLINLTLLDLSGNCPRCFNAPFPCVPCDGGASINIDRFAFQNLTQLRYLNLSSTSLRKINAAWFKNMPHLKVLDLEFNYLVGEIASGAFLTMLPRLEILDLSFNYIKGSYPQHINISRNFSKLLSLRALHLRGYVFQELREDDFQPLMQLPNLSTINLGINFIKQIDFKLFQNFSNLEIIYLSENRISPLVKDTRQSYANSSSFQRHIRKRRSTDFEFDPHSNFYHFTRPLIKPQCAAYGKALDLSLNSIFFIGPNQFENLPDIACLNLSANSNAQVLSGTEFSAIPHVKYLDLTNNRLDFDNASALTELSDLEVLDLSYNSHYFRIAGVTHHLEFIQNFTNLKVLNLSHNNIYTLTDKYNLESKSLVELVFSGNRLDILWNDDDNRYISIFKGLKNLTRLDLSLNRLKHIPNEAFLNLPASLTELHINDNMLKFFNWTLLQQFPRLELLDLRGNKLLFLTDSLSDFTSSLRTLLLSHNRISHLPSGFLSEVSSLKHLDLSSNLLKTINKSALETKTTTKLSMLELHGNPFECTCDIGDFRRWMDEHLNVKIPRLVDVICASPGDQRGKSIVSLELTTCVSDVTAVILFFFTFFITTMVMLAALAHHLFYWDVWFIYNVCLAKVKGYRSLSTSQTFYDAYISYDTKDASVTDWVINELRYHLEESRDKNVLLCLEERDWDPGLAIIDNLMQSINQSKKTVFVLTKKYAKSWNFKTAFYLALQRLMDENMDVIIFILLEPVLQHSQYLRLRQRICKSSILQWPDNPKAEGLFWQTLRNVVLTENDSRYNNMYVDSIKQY
# experimental_protocol: HEK-293 hTLR8 transfectant NF-κB SEAP reporter antagonist assay
# Assay type: cell-based
# experimental_conditions: IC50, nM, vs. VTX-378 1 μM, agonist VTX-378 at 1 μM
property: IC50

Some entries whose results are on file:
CCOC(=O)N1Cc2cc(-c3ccc(C(=O)N4CCCC4)cc3)ccc2N=C(N)C12CC2
≥ 10000 nM
CCOC(=O)C1=Cc2cc(-c3ccc(C(=O)N4CCCC4)cc3)ccc2N=C(NN(C)C)C1
1000 to 10000 nM
CCOC(=O)C1=Cc2cc(-c3ccc(C(=O)N4CCCC4)cc3)ccc2N=C(N(C)C)C1
≥ 10000 nM
CCOC(=O)C1=Cc2cc(-c3ccc(C(=O)N4CCCC4)cc3)ccc2N=C(NC)C1
1000 to 10000 nM
CCOC(=O)C1=Cc2cc(-c3ccc(C(=O)N4CCCC4)cc3)ccc2N=C(N)C1(C)C
< 1000 nM

Ask: Provide value of IC50 for this record tested with hTLR8 (Homo sapiens, UniProt Q9NR97): CCOC(=O)C1=Cc2cc(-c3ccc(C(=O)N4CCCC4)cc3)ccc2N=C(N)C12CC2
Reply: < 1000 nM

Ask: Provide value of IC50 for this record tested with hTLR8 (Homo sapiens, UniProt Q9NR97): CCOC(=O)C1=Cc2cc(-c3ccc(C(=O)N4CCCC4)cc3)ccc2N=C(N)C1C (stereo not drawn)
Reply: < 1000 nM

Ask: Provide value of IC50 for this record tested with hTLR8 (Homo sapiens, UniProt Q9NR97): CCOC(=O)C1=Cc2cc(-c3ccc(C(=O)N4CCCC4)cc3)ccc2-n2c(n[nH]c2=O)C1
Reply: ≥ 10000 nM

Ask: Provide value of IC50 for this record tested with hTLR8 (Homo sapiens, UniProt Q9NR97): CCOC(=O)C1=Cc2cc(-c3ccc(C(=O)N4CCCC4)cc3)ccc2-n2ccnc2C1
Reply: ≥ 10000 nM
